- assay procedure: Protein binding in LB assay broth (above 30 kDa) by ultra filtration method
- Format: ADME
- measurement context: read-out: PB (converted)
recorded endpoint: fraction unbound

INSERT INTO assay_data (smiles_string, recorded_endpoint, value_observed) VALUES
  ('Cc1cc(=O)n2nc(CC(=O)c3ccccc3)[nH]c2n1', 'fraction unbound', 0.93);

----------
- System: HepG2
- assay procedure: Cytotoxicity against human HepG2 cells after 24 hrs by MTT assay
- Format: cell-based
- measurement context: HepG2, 24 h
pIC50: −log10 of the molar value.
recorded endpoint: pIC50

INSERT INTO measurements (molecule, value_observed) VALUES
  ('Cc1cc(=O)n2nc(CC(=O)c3ccccc3)nc2[nH]1 [ESSRAMYCIN]', '< 3.70');
